Let's go through some recorded IC50 values for UniProtKB Q15910 together.
reported_metric: IC50

molecule | target_entity | reported_measurement
Cc1cc(C)c(CNC(=O)c2ccc(Oc3ccccc3C#N)cc2)c(=O)[nH]1 | UniProtKB Q15910 | 1 to 10 µM
Cc1cccc(OC(C)c2ccc(C(=O)NCc3c(C)cc(C)[nH]c3=O)cc2)c1 (stereo not drawn) | UniProtKB Q15910 | < 1 µM
Cc1cc(C)c(CNC(=O)c2ccc([C@@H](C)Oc3ccccc3)cc2C)c(=O)[nH]1 | UniProtKB Q15910 | 1 to 10 µM

---

Catalogue of IC50 readings, one per entry.
- target_entity: Y641N EZH2 (Homo sapiens, UniProt Q15910, Y641N)
- Sequence (Q15910 whole entry Y641N): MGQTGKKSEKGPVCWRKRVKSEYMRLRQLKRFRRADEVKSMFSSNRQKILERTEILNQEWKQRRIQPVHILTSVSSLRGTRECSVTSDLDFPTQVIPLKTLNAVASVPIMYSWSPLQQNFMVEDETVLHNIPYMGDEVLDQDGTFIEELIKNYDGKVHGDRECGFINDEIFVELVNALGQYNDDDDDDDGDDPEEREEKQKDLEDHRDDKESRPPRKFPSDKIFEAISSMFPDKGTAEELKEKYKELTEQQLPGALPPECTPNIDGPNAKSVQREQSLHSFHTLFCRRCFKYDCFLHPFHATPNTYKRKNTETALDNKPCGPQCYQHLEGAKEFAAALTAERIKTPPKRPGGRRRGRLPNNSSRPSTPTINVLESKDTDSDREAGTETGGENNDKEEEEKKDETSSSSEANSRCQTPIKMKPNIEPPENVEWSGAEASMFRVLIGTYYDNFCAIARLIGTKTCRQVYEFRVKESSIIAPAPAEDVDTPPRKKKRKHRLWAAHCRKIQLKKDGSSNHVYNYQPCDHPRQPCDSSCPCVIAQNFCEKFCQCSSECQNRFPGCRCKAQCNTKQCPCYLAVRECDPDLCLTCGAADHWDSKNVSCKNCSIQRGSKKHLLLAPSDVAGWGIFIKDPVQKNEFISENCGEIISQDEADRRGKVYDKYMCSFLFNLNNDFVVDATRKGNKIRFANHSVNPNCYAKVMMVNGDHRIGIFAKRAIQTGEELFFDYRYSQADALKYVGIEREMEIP
- Sequence (O75530 whole entry partner): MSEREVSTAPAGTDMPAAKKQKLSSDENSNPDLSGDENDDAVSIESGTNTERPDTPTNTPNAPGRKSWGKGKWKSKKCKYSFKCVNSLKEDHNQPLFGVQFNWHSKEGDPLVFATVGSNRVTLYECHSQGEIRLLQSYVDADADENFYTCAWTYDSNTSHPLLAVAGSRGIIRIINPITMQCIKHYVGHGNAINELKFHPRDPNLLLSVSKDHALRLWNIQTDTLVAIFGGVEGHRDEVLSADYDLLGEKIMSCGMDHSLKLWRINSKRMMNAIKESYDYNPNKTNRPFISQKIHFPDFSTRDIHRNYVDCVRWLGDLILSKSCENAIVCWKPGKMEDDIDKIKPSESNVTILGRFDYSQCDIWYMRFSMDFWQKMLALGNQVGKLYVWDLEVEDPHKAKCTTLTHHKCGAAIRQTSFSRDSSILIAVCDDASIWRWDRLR
- Sequence (Q15022 whole entry partner): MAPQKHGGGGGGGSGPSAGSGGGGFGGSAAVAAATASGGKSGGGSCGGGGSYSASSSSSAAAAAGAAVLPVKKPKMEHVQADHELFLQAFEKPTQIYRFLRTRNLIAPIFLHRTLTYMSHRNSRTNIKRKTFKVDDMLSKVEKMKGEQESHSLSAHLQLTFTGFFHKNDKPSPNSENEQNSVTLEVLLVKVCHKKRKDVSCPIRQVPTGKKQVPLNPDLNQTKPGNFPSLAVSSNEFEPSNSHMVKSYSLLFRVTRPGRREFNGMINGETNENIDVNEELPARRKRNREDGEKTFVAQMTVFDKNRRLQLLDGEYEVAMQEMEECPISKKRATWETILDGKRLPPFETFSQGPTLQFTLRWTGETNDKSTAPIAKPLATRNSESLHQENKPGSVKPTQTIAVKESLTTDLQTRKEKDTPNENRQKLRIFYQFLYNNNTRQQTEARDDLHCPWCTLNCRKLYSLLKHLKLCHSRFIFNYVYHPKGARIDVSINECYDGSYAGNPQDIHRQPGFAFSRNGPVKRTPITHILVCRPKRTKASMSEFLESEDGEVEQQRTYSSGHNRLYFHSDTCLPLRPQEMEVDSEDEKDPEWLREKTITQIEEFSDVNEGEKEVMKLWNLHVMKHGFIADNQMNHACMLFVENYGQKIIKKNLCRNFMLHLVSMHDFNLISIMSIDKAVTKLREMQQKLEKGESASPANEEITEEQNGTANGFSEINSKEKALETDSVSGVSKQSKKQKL
- procedure_details: Y641N EZH2 activity inhibition assay (as EZH2 assay, reconstituted H3K27Me2 oligonucleosomes as substrate)
- conditions_used: Y641N EZH2 mutant enzyme
reported_metric: IC50

compound | target_entity | reported_measurement
Cc1cc(C)c(CNC(=O)c2ccc(C(C)Oc3ccccc3)c(F)c2)c(=O)[nH]1 (single isomer, unassigned) [Compound I-160] | Y641N EZH2 (Homo sapiens, UniProt Q15910, Y641N) | > 80 µM
Cc1cc(C)c(CNC(=O)c2ccc(Nc3ccccc3)nc2)c(=O)[nH]1 | Y641N EZH2 (Homo sapiens, UniProt Q15910, Y641N) | > 80 µM
Cc1cc(C)c(CNC(=O)c2ccc([C@@H](C)Oc3ccccc3C#N)cc2)c(=O)[nH]1 | Y641N EZH2 (Homo sapiens, UniProt Q15910, Y641N) | > 80 µM
Cc1cc(C)c(CNC(=O)c2ccc(C(C)Oc3ccccc3F)cc2)c(=O)[nH]1 (stereo not drawn) | Y641N EZH2 (Homo sapiens, UniProt Q15910, Y641N) | < 1 µM
Cc1cc(C)c(CNC(=O)c2ccc(C(C)Oc3ccncn3)cc2)c(=O)[nH]1 (stereo not drawn) | Y641N EZH2 (Homo sapiens, UniProt Q15910, Y641N) | 1 to 10 µM
Cc1cc(C)c(CNC(=O)c2ccc(Nc3ccccc3)cc2)c(=O)[nH]1 | Y641N EZH2 (Homo sapiens, UniProt Q15910, Y641N) | 10 to 50 µM
Cc1cc(C)c(CNC(=O)c2ccc(C(Oc3ccccc3)C(C)C)cc2)c(=O)[nH]1 (stereo not drawn) | Y641N EZH2 (Homo sapiens, UniProt Q15910, Y641N) | > 50 µM
O=C(NCc1cc2c([nH]c1=O)CCC2)c1ccc(Oc2ccccc2)cc1 | Y641N EZH2 (Homo sapiens, UniProt Q15910, Y641N) | 10 to 50 µM
Cc1c[nH]c(=O)c(CNC(=O)c2ccc(C(C)Oc3ccccc3)cc2)c1 (stereo not drawn) | Y641N EZH2 (Homo sapiens, UniProt Q15910, Y641N) | > 80 µM
Cc1cc(C)c(CNC(=O)c2ccc(C(C)N3CCCCC3)cc2C)c(=O)[nH]1 (stereo not drawn) | Y641N EZH2 (Homo sapiens, UniProt Q15910, Y641N) | 1 to 10 µM
Cc1cc(C)c(CNC(=O)c2ccc(C(C)OC3CCOCC3)cc2)c(=O)[nH]1 (stereo not drawn) | Y641N EZH2 (Homo sapiens, UniProt Q15910, Y641N) | 1 to 10 µM
Cc1cc(C)c(CNC(=O)c2c(C)cn(C(C)c3ccccc3)c(=O)c2C)c(=O)[nH]1 (stereo not drawn) | Y641N EZH2 (Homo sapiens, UniProt Q15910, Y641N) | 1 to 10 µM

---

Catalogue of IC50 readings, one per entry.
- target_entity: EZH2 (Homo sapiens, UniProt Q15910)
- Sequence (Q15910 whole entry): as the sequence (Q15910 whole entry Y641N) above, with N641Y counted along it
- Sequence (O75530 whole entry partner): as the sequence (O75530 whole entry partner) above
- Sequence (Q15022 whole entry partner): as the sequence (Q15022 whole entry partner) above

compound | target_entity | IC50
Cc1cc(C)c(CNC(=O)c2ccc(C3CCCO3)cc2)c(=O)[nH]1 (stereo not drawn) [Compound I-84] | EZH2 (Homo sapiens, UniProt Q15910) | 1 to 10 µM
Cc1cc(C)c(CNC(=O)c2ccc(C(CC(C)C)Oc3ccccc3)cc2)c(=O)[nH]1 (stereo not drawn) [Compound I-49] | EZH2 (Homo sapiens, UniProt Q15910) | 10 to 50 µM
O=C(NCc1ccc(-c2ccccc2)[nH]c1=O)c1ccc(Oc2ccccc2)cc1 [Compound I-170] | EZH2 (Homo sapiens, UniProt Q15910) | > 80 µM
Cc1cc(C)c(CNC(=O)c2ccc(Oc3ccccc3)cc2C)c(=O)[nH]1 [Compound I-28] | EZH2 (Homo sapiens, UniProt Q15910) | 1 to 10 µM
Cc1cc(C)c(CNC(=O)c2cnc(Oc3ccccc3)nc2)c(=O)[nH]1 [Compound I-79] | EZH2 (Homo sapiens, UniProt Q15910) | 10 to 50 µM
Cc1cc(C)c(CN(C)C(=O)c2ccc(Oc3cccc(-c4ccncn4)c3C#N)c(Cl)c2)c(O)n1 [Compound I-17] | EZH2 (Homo sapiens, UniProt Q15910) | 1 to 10 µM
Cc1cc(C)c(CNC(=O)c2ccc(Nc3ccccc3)cc2)c(=O)[nH]1 [Compound I-19] | EZH2 (Homo sapiens, UniProt Q15910) | 1 to 10 µM
Cc1cc(C)c(CNC(=O)c2ccc(Oc3ccccc3)nc2)c(=O)[nH]1 [Compound I-16] | EZH2 (Homo sapiens, UniProt Q15910) | 1 to 10 µM
Cc1cc(C)c(CNC(=O)c2ccc(C3Cc4ccccc4O3)cc2)c(=O)[nH]1 (stereo not drawn) [Compound I-51] | EZH2 (Homo sapiens, UniProt Q15910) | 1 to 10 µM
Cc1cc(C)c(CNC(=O)c2ccc(C(C)N3CCCCC3)cc2)c(=O)[nH]1 (stereo not drawn) [Compound I-81] | EZH2 (Homo sapiens, UniProt Q15910) | 1 to 10 µM
COc1cc(Oc2ccccc2)ccc1C(=O)NCc1c(C)cc(C)[nH]c1=O [Compound I-32] | EZH2 (Homo sapiens, UniProt Q15910) | < 1 µM
Cc1cc(CNC(=O)c2ccc(C(C)Oc3ccccc3)cc2)c(=O)[nH]c1C (stereo not drawn) [Compound I-157] | EZH2 (Homo sapiens, UniProt Q15910) | > 80 µM
Cc1cc(C)c(CNC(=O)c2ccc(C(C)Oc3ccccc3F)cc2)c(=O)[nH]1 (stereo not drawn) [Compound I-41] | EZH2 (Homo sapiens, UniProt Q15910) | < 1 µM
Cc1cc(C)c(CNC(=O)c2ccc(COc3ccccc3)c(C)c2)c(=O)[nH]1 [Compound I-54] | EZH2 (Homo sapiens, UniProt Q15910) | < 1 µM
Cc1cc(C)c(CNC(=O)c2ccc(C(C)Oc3ccccc3)nc2)c(=O)[nH]1 (stereo not drawn) [Compound I-64] | EZH2 (Homo sapiens, UniProt Q15910) | 1 to 10 µM
Cc1cc(C)c(CNC(=O)c2ccc(CN3CCN(CCO)CC3)cc2)c(=O)[nH]1 [Compound I-89] | EZH2 (Homo sapiens, UniProt Q15910) | 1 to 10 µM
Cc1cc(C)c(CNC(=O)c2ncc(Oc3ccccc3)cn2)c(=O)[nH]1 [Compound I-159] | EZH2 (Homo sapiens, UniProt Q15910) | > 80 µM
Cc1cc(C)c(CNC(=O)c2ccc(C(Oc3ccccc3)C(C)C)cc2)c(=O)[nH]1 (stereo not drawn) [Compound I-43] | EZH2 (Homo sapiens, UniProt Q15910) | 10 to 50 µM
